Assay: AUC in CD-1 mouse at 5 mg/kg, po administered via gavage by mass spectrometric analysis
Format: ADME, organism-based
Settings: in vivo
OBSERVATION_TYPE: AUC
The reply should consist of the numeric value with the unit placed after it.

C[C@H](F)[C@H]1COC(=O)N1c1ccnc(NC2(c3cn(-c4ccc(F)c(Cl)c4)cn3)CC2)n1 :: 25 ng·h/mL

Below: the item to evaluate.
-- ask # query: AUC of entry C[C@H](F)[C@H]1COC(=O)N1c1nc(NC2(c3cn(-c4ccc(F)c(Cl)c4)cn3)CC2)ncc1F
-- reply 153 ng·h/mL

---

Molecular target: Isocitrate dehydrogenase [NADP] cytoplasmic (Homo sapiens, UniProt O75874, R132C)
Sequence (O75874 2-414 R132C limits assumed): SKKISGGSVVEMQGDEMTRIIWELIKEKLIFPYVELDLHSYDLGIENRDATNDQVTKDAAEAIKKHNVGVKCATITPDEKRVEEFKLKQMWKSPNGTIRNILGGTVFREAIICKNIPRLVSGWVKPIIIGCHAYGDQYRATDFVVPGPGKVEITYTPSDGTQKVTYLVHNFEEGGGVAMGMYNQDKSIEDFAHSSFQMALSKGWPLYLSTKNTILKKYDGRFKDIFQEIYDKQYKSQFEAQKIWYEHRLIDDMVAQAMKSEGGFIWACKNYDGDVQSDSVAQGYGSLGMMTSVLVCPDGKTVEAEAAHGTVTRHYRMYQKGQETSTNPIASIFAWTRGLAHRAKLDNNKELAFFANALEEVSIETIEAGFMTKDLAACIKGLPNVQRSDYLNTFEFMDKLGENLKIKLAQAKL
Assay: Inhibition of IDH1 R132C mutant in human HT1080 cells assessed as inhibition of 2HG production after 48 hrs by LC-MS/MS analysis
Examples of compounds with documented IC50 follow.
Report only the number, with the unit nM understood.

C[C@H](F)[C@H]1COC(=O)N1c1ccnc(NC2(c3cn(-c4ccc(F)c(Cl)c4)cn3)CCC2)n1 :: 21

-- ask # query: IC50 of entry C[C@H](F)[C@H]1COC(=O)N1c1ccnc(NC2(c3cn(-c4ccc(F)c(Cl)c4)cn3)CC2)n1
-- reply 12

-- ask # query: IC50 of entry C[C@H](F)[C@H]1COC(=O)N1c1ccnc(NC2(c3cn(-c4ccc(C(F)(F)F)cc4)cn3)CC2)n1
-- reply 32

-- ask # query: IC50 of entry C[C@H](F)[C@H]1COC(=O)N1c1ccnc(NC2(c3cn(-c4cccc(C(F)(F)F)c4)cn3)CC2)n1
-- reply 10

---

Test: Stability in human liver microsomes assessed as parent compound remaining at 0.01 uM after 60 mins by LC-MS/MS analysis
Format: ADME, Microsome
Conditions: read-out: Stability
OBSERVATION_TYPE: remaining at 1 h, 0.01 µM (%)
Report only the number, with the unit % understood.

-- ask # query: remaining at 1 h, 0.01 µM of entry C[C@H](F)[C@H]1COC(=O)N1c1ccnc(NC2(c3cn(-c4ccc(F)c(Cl)c4)cn3)CC2)n1
-- reply 22

---

Test: AUC in CD-1 mouse at 1 mg/kg, iv by mass spectrometric analysis
Type: ADME, organism-based
Settings: in vivo
OBSERVATION_TYPE: AUC (ng·h/mL)
Report only the number, with the unit ng·h/mL understood.

C[C@H](F)[C@H]1COC(=O)N1c1nc(NC2(c3cn(-c4ccc(F)c(Cl)c4)cn3)CC2)ncc1F :: 257

Below: the item to evaluate.
-- ask # query: AUC of entry C[C@H](F)[C@H]1COC(=O)N1c1ccnc(NC2(c3cn(-c4ccc(F)c(Cl)c4)cn3)CC2)n1
-- reply 40

---

Examples of compounds with documented CLint follow.
Assay: Intrinsic clearance in rat liver microsomes assessed per gram of protein at 0.1 uM after 60 mins in presence of NADPH by LC-MS/MS analysis
Assay type: ADME, Microsome
Conditions: 1 h
The reply should consist of the numeric value with the unit placed after it.

C[C@H](F)[C@H]1COC(=O)N1c1cc(Cl)nc(NC2(c3cn(-c4ccc(F)c(Cl)c4)cn3)CC2)n1 :: 123 mL/min/g
C[C@H](F)[C@H]1COC(=O)N1c1ccnc(NC2(c3cn(-c4cccc(C(F)(F)F)c4)cn3)CC2)n1 :: 312 mL/min/g
C[C@H](F)[C@H]1COC(=O)N1c1ccnc(NC2(c3cn(-c4ccc(F)c(Cl)c4)cn3)CCC2)n1 :: 372 mL/min/g

-- ask # query: CLint of entry C[C@H](F)[C@H]1COC(=O)N1c1ccnc(NC2(c3cn(-c4cc(F)cc(Cl)c4)cn3)CC2)n1
-- reply 240 mL/min/g

-- ask # query: CLint of entry C[C@H](F)[C@H]1COC(=O)N1c1ccnc(NC2(c3cn(-c4ccc(F)c(Cl)c4)cn3)CC2)n1
-- reply 133 mL/min/g

-- ask # query: CLint of entry C[C@H](F)[C@H]1COC(=O)N1c1nc(NC2(c3cn(-c4ccc(F)c(Cl)c4)cn3)CC2)ncc1F
-- reply 89 mL/min/g
